Test system: MDA-MB-435 melanoma
Test: NCI-60 one-dose screen, 48 h (100 = growth as untreated, 0 = no growth, -100 = all killed)
Settings: 10 µM unless noted
Compounds without any hit were thinned out: in the full panel of roughly 83,000, 20% have a hit.
TEST READOUT: growth (%)
Write the value in % as a bare number.

Q: What measured growth goes with "O=C1c2cccnc2C(=O)c2c1c(C(=O)OCCCN1CCCCC1)c1ccccn21" ?
Ans: -41.5

Q: What measured growth goes with "C[C@H]1[C@H](C)CC[C@]2(C(=O)O)CC[C@]3(C)C(=CC[C@@H]4[C@@]5(C)C[C@@H](Cc6cn([C@@H]7O[C@H](CO)[C@@H](O)[C@H](O)[C@H]7O)nn6)[C@H](O)C(C)(C)[C@@H]5CC[C@]43C)[C@H]12" ?
Ans: 101

Q: What measured growth goes with O=C(CN1C(=O)NC2NC(=O)NC21)N/N=C/c1ccc(Cl)cc1Cl (centres undefined) ?
Ans: 102

Q: What measured growth goes with "O=C1/C(=C/c2ccc(C(F)(F)F)cc2)COc2ccc(O)cc21" ?
Ans: 87.7

Q: What measured growth goes with "COc1cc(-c2nc3occn3c2-c2ccnc(NCCCNS(=O)(=O)c3ccccc3)n2)ccc1F" ?
Ans: 9.04

Q: What measured growth goes with "CCN(CC)c1ccc(/C=N\NC(=O)c2cccc(Nc3ccnc(C(F)(F)F)c3)c2)c(O)c1" ?
Ans: 15.4

Q: What measured growth goes with "COc1ccc2nc(SCC(=O)Nc3ccccc3C)[nH]c2c1" ?
Ans: 97

Q: What measured growth goes with "Cc1ccc2[nH]c(-c3ccc(S(C)(=O)=O)cc3)c(/C=N/N=C(N)N)c2c1" ?
Ans: -21.9

Q: What measured growth goes with COc1cc(OC)cc(C2C(C#N)=C(N)Oc3c2ccc2ccc(O)cc32)c1 (centres undefined) ?
Ans: 4.98

----------
Answer each item with its documented growth.
Test system: LOX IMVI melanoma
Assay: NCI-60 one-dose screen, 48 h (100 = growth as untreated, 0 = no growth, -100 = all killed)
Conditions: 10 µM unless noted
About 83,000 compounds went through this panel and 20% of them were active in at least one assay; those are over-represented in the sample as a whole.
Write the value in % as a bare number.

Q: What measured growth goes with CCOC(=O)c1c(C)nn(CC(O)c2ccccc2)c1NC(=O)Nc1cccc(F)c1 (centres undefined) ?
Ans: 95

Q: What measured growth goes with "Clc1nccc2c(-c3csc(-c4c[nH]c5ccccc45)n3)c[nH]c12" ?
Ans: 28.2

Q: What measured growth goes with "O=C(CCl)Nc1ccc2c(Nc3cc(O)ccc3Cl)ncnc2c1" ?
Ans: -81.6

Q: What measured growth goes with "O=c1ccc2nc(C(F)(F)F)nn(-c3ccccc3)c-2c1" ?
Ans: 4.3

Q: What measured growth goes with "CCCCCCCCCCCCCCCCOC(=O)c1c(C)[nH]c(/C=C2\N=C(c3ccc[nH]3)C=C2OC)c1C" ?
Ans: -83.9

Q: What measured growth goes with "CCOC(=O)c1c(C)nc2c(c1N)CC(=O)N2Cc1cc(OC)c(OC)c(OC)c1" ?
Ans: 48.5

Q: What measured growth goes with "N=c1sc(Cc2cc(Cl)ccc2Cl)cn1CC(=O)c1ccccc1" ?
Ans: 25.1

Q: What measured growth goes with "Cc1c2cc[nH]c(=O)c2c(C)c2c1[nH]c1ccc(OC(=O)c3ccccc3)cc12" ?
Ans: 13.7

Q: What measured growth goes with "CCOC(=O)c1c(NC(=O)c2ccc(C(C)(C)C)cc2)sc2cc(O)ccc12" ?
Ans: 87

Q: What measured growth goes with CC1COCC(C)N1C1=C(Cl)C(=O)c2ccccc2C1=O (centres undefined) ?
Ans: 7.84

Q: What measured growth goes with O=C1Nc2ccccc2C2c3cccn3-c3ccccc3N12 (centres undefined) ?
Ans: 74.2

Q: What measured growth goes with "O=C(c1ccc(F)c(Cl)c1)N1c2ccccc2Sc2ccccc21" ?
Ans: 41.2

Q: What measured growth goes with "O=C(CN1CCN(c2cc3c(cc2F)c(=O)c(C(=O)O)cn3C2CC2)CC1)N/N=C/c1ccncc1" ?
Ans: 99.8

Q: What measured growth goes with "COc1cc2c(c(OC)c1OC)C(=O)N[C@@H]1[C@@H](O)[C@@H](O)[C@H](O)C[C@@H]21" ?
Ans: 97.7

Q: What measured growth goes with "CCOC(=O)c1c(NC(=O)CSc2n[nH]c3nc4ccccc4n23)sc(CC)c1C" ?
Ans: 99

Q: What measured growth goes with "Nc1c(C(=O)Nc2ccncc2)sc2nc3c(cc12)CCCCC3" ?
Ans: 84

Q: What measured growth goes with "O=C(Nc1cccc(NC(=O)C2CCCCC2)c1)c1ccccn1" ?
Ans: 90.6

Q: What measured growth goes with "Cc1[nH]c(C(=O)Nc2cccc(OC3CCNCC3)c2)c(Cl)c1Cl" ?
Ans: 40.9

Q: What measured growth goes with "COC(=O)c1ccc2c(c1)c1c(C)c3ccncc3c(C)c1n2C" ?
Ans: 4.81

Q: What measured growth goes with "Oc1c(I)cc(-c2nc3ccccc3s2)cc1CN(Cc1ccccn1)Cc1ccccn1" ?
Ans: 3.14

Q: What measured growth goes with "COc1ccc2nc3ccccc3c(NCc3ccccc3)c2c1" ?
Ans: -31.1

Q: What measured growth goes with COc1ccc(C2C(C#N)=C(N)Oc3c2sc2c(Br)cccc32)cc1 (centres undefined) ?
Ans: 29.2

Q: What measured growth goes with C=CCOC(=O)C1=C(C)NC(=O)NC1c1c(Cl)n(C)c2ccccc12 (centres undefined) ?
Ans: 102

Q: What measured growth goes with "COc1ccc2cc(-c3ccc(-c4ccc(C(=N)N)s4)s3)ccc2c1" ?
Ans: -58.2

Q: What measured growth goes with CCN1C(=O)N(CC)C2C1NN=c1s/c(=C3\C(=O)N(CCc4ccccc4)c4ccccc43)c(=O)n12 (centres undefined) ?
Ans: 10.9

Q: What measured growth goes with COc1ccc(C2C3=C(COC3=O)N(CCO)c3cc4c(cc32)OCCO4)cc1OC (centres undefined) ?
Ans: 42.1

Q: What measured growth goes with "Cc1ncc(C(=O)Nc2ccc(CN3CCN(C)CC3)c(C(F)(F)F)c2)cc1C#Cc1cnc(N)c2ccncc12" ?
Ans: -93.3

Q: What measured growth goes with Cc1ccc(C)c2c1C(O)(C#Cc1ccccc1)c1ccccc1C2(O)C#Cc1ccccc1 (centres undefined) ?
Ans: 42.5

Q: What measured growth goes with COc1ccc(-c2cc(C(=O)N3N=C(c4ccc(N)cc4)CC3c3ccccc3)c3ccccc3n2)cc1 (centres undefined) ?
Ans: 39.7

Q: What measured growth goes with "O=C1Nc2ccccc2/C1=C/c1cn(C[C@@H](O)Cn2c3ccccc3c(=O)c3ccccc32)c2ccccc12" ?
Ans: 69.1

Q: What measured growth goes with "C=NNc1ccccc1" ?
Ans: 62.8

Q: What measured growth goes with COc1cc(C2Cc3ncccc3-c3[nH]c(=O)c4cccnc4c32)cc(OC)c1OC (centres undefined) ?
Ans: 29.2

Q: What measured growth goes with "C#CCOc1ccc2ncnc(Nc3cccc(NC(=O)CCl)c3)c2c1" ?
Ans: -68.1

Q: What measured growth goes with "CC[C@@H](c1ccc2cc(OC)ccc2c1)C(C)(C)C(=O)F" ?
Ans: 91.4

Q: What measured growth goes with "O=C(/C=C/c1cccc(Cl)c1)c1cccc(OCCCCOc2cccc(C(=O)/C=C/c3cccc(Cl)c3)c2)c1" ?
Ans: 30.5

Q: What measured growth goes with "C[C@@H]1CC[C@@]2(OC1)O[C@H]1C[C@H]3[C@@H]4CC=C5C[C@@H](O[C@@H]6O[C@H](CO)[C@@H](O[C@@H]7O[C@@H](CO)[C@H](O)[C@H]7O)[C@H](O)[C@H]6O[C@@H]6O[C@@H](C)[C@H](O)[C@@H](O)[C@H]6O)CC[C@]5(C)[C@H]4CC[C@]3(C)[C@H]1[C@@H]2C" ?
Ans: -96.7

Q: What measured growth goes with "COc1ccc(-c2cc(-c3ccc(OC)cc3)nc(NCCCNc3ccnc4cc(Cl)ccc34)n2)cc1" ?
Ans: -95

Q: What measured growth goes with "C#CCn1cnc2c(Nc3cccc(NC(=O)CCl)c3)ncnc21" ?
Ans: 24

Q: What measured growth goes with "Cc1nc2sc(C(=O)Nc3ccccc3)c(N)c2cc1C(=O)/C=C/c1ccccc1" ?
Ans: -80
